target: DNA repair nuclease/redox regulator APEX1 (Homo sapiens) (UniProt P27695)
Sequence (P27695 whole entry, looked up): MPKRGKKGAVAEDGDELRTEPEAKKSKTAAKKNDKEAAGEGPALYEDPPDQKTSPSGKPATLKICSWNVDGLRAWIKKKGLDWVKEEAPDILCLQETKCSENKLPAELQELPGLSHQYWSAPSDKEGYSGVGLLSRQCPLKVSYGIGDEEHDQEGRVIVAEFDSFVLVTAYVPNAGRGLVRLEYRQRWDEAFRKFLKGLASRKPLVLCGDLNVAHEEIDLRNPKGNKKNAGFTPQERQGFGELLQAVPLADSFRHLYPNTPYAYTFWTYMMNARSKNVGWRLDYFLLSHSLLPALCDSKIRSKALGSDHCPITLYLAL
run description: qHTS Validation Assay for Inhibitors of the Human Apurinic/apyrimidinic Endonuclease 1 (APE1) (AID 1705)
stated conditions: purified APE1 endonuclease activity, fluorescence, titration; series mostly up to 57.1 µM
Inconclusive results are not listed. Active and inactive are the calls of the source. Calls follow the shape of the dose curve; as a rule, active = well fitted inhibition curve with a large enough effect; inconclusive = small, poorly fitted or top-dose-only effect; inactive = flat fitted curve, though single readings scatter. Residues, ends and D or L forms follow the SMILES beside them. *: point of attachment. Cbz = O=C(OCc1ccccc1)*
Possible outcomes: active, inactive

# compound, target, group
measured = [
    ("Cc1cc2c(cc1Cl)N(C(=O)Nc1ccnc3ccccc13)CC2", "DNA repair nuclease/redox regulator APEX1 (Homo sapiens) (UniProt P27695)", "inactive"),
    ("Nc1ccc(-c2nc3ccc(-c4nc5ccc(N)cc5[nH]4)cc3[nH]2)cc1", "DNA repair nuclease/redox regulator APEX1 (Homo sapiens) (UniProt P27695)", "active"),
    ("O=c1cc(-c2ccccc2)[nH]c2nc(Cl)ccc12", "DNA repair nuclease/redox regulator APEX1 (Homo sapiens) (UniProt P27695)", "inactive"),
    ("Oc1cc2c(cc1O)C(c1ccccc1)CNCC2 (stereo not drawn)", "DNA repair nuclease/redox regulator APEX1 (Homo sapiens) (UniProt P27695)", "inactive"),
    ("N[C@@H](CS(=O)O)C(=O)O", "DNA repair nuclease/redox regulator APEX1 (Homo sapiens) (UniProt P27695)", "inactive"),
    ("COC(=O)[C@H](NC(=O)c1cc(-c2ccccc2)nc2ccccc12)c1ccccc1", "DNA repair nuclease/redox regulator APEX1 (Homo sapiens) (UniProt P27695)", "inactive"),
    ("NOCC(=O)O", "DNA repair nuclease/redox regulator APEX1 (Homo sapiens) (UniProt P27695)", "inactive"),
    ("O=C(N[C@@H](Cc1ccccc1)C(=O)CCl)OCc1ccccc1", "DNA repair nuclease/redox regulator APEX1 (Homo sapiens) (UniProt P27695)", "inactive"),
    ("O=c1ccc2c(OCCCCc3ccccc3)c3ccoc3cc2o1", "DNA repair nuclease/redox regulator APEX1 (Homo sapiens) (UniProt P27695)", "inactive"),
    ("OC[C@H]1O[C@@H](n2cnc3cncnc32)[C@H](O)[C@@H]1O", "DNA repair nuclease/redox regulator APEX1 (Homo sapiens) (UniProt P27695)", "inactive"),
    ("CNc1cc(NS(=O)(=O)c2ccc(N)cc2)nc(NC)n1", "DNA repair nuclease/redox regulator APEX1 (Homo sapiens) (UniProt P27695)", "inactive"),
    ("Cn1ccnc1", "DNA repair nuclease/redox regulator APEX1 (Homo sapiens) (UniProt P27695)", "inactive"),
    ("COc1cc([C@@H]2c3cc4c(cc3[C@H](O)C3COC(=O)[C@@H]32)OCO4)cc(OC)c1OC (stereo partly drawn)", "DNA repair nuclease/redox regulator APEX1 (Homo sapiens) (UniProt P27695)", "inactive"),
    ("CC(C)[C@H](NC(=O)OCc1ccccc1)C(=O)N[C@H](C=O)Cc1ccccc1 (Cbz-Val-Phe-aldehyde)", "DNA repair nuclease/redox regulator APEX1 (Homo sapiens) (UniProt P27695)", "inactive"),
    ("CNc1ncnc2c1ncn2[C@H]1C[C@H](OP(=O)(O)O)[C@@H](COP(=O)(O)O)O1", "DNA repair nuclease/redox regulator APEX1 (Homo sapiens) (UniProt P27695)", "inactive"),
    ("C#CCn1c(=O)c2c(ncn2C)n(C)c1=O", "DNA repair nuclease/redox regulator APEX1 (Homo sapiens) (UniProt P27695)", "inactive"),
    ("O=c1[nH]c(=O)c2nc3ccccc3nc2[nH]1", "DNA repair nuclease/redox regulator APEX1 (Homo sapiens) (UniProt P27695)", "inactive"),
    ("CC[C@H](NC(=O)c1c(C)c(-c2ccccc2)nc2ccccc12)c1ccccc1", "DNA repair nuclease/redox regulator APEX1 (Homo sapiens) (UniProt P27695)", "inactive"),
    ("COc1ccc2c(c1)CCC1C2CC[C@@]2(C)C1CC[C@@H]2NCCCCCCN1C(=O)C=CC1=O (stereo partly drawn)", "DNA repair nuclease/redox regulator APEX1 (Homo sapiens) (UniProt P27695)", "inactive"),
    ("N#Cc1cc2nc(O)c(O)nc2cc1[N+](=O)[O-]", "DNA repair nuclease/redox regulator APEX1 (Homo sapiens) (UniProt P27695)", "active"),
    ("O=C(O)/C=C/c1cnc[nH]1", "DNA repair nuclease/redox regulator APEX1 (Homo sapiens) (UniProt P27695)", "inactive"),
    ("C/C(=C\\c1ccc(C(=O)O)cc1)c1ccc2c(c1)C(C)(C)CCC2(C)C", "DNA repair nuclease/redox regulator APEX1 (Homo sapiens) (UniProt P27695)", "inactive"),
    ("COc1ccc2c(c1)c(CC(=O)O)c(C)n2C(=O)c1ccccc1", "DNA repair nuclease/redox regulator APEX1 (Homo sapiens) (UniProt P27695)", "inactive"),
]

###

target: Arylsulfatase A (Homo sapiens) (UniProt P15289)
Sequence (P15289 whole entry, looked up): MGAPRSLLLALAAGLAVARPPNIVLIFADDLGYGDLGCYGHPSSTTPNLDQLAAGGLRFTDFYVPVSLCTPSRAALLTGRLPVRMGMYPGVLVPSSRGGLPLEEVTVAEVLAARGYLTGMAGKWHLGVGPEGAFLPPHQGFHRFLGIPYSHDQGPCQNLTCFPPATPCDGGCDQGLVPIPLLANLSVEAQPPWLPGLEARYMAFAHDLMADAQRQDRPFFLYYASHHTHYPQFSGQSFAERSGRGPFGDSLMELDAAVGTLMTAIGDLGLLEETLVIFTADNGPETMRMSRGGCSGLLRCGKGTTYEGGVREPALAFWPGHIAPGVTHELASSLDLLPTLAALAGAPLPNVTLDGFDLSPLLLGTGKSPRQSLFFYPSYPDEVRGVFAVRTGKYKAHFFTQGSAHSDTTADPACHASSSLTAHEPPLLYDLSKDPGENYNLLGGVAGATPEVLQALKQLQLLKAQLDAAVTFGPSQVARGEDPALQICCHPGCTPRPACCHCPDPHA
run description: qHTS screen for enhancers of Arylsulfatase A (ASA1): LOPAC Validation Assay (AID 720538)
stated conditions: ASA enzyme activity, LOPAC qHTS enhancer assay; series mostly up to 57.5 µM
Inconclusive results are not listed. Active and inactive are the calls of the source. The call rests on the fitted dose curve; in most records, active means well fitted activation curve with a large enough effect; inconclusive means small, poorly fitted or top-dose-only effect; inactive means no such curve, though single readings can be large or run the other way.
Possible outcomes: active, inactive

# compound, group
measured = [
    ("Nc1ncnc2c1nc(Br)n2C1OC2COP(=O)(O)O[C@@H]2C1O (some centres not stated)", "inactive"),
    ("O=C(O)/C(=C/c1c(C(=O)O)[nH]c2cc(Cl)cc(Cl)c12)c1ccccc1", "inactive"),
    ("O=c1ccc2c(OCCCCc3ccccc3)c3ccoc3cc2o1", "inactive"),
    ("COc1cc(CC(=O)O)ccc1O", "inactive"),
    ("N#Cc1cc2nc(O)c(O)nc2cc1[N+](=O)[O-]", "inactive"),
    ("O=C(O)c1cc2cc(F)ccc2[nH]1", "inactive"),
    ("O=c1cc(-c2ccccc2F)[nH]c2cc3c(cc12)OCO3", "inactive"),
    ("Nc1ncnc2c1ncn2C1CCCO1 (configuration not stated)", "active"),
    ("Clc1nccc2c1ccc1ccccc12", "inactive"),
    ("N[C@@H](Cc1ccc(O)c(I)c1)C(=O)O", "inactive"),
    ("CCC(=O)N1CCN(C(=O)c2ccccc2)CC1", "inactive"),
    ("CCCCCCCCCCCCCCCCCCOC[C@H](COP(=O)([O-])OCC[N+](C)(C)C)OC", "inactive"),
]

###

run description: Validation screen for small molecules that induce DNA re-replication in MCF 10A normal breast cells (AID 463097); also: nearly all actives have a fitted effect of over 60% in size
stated conditions: MCF 10A cells, DNA re-replication phenotype imaging; series mostly up to 46.1 µM
Records with an inconclusive call do not appear. Active and inactive are the calls of the source. The call rests on the fitted dose curve; in most records, active means well fitted activation curve with a large enough effect; inconclusive means small, poorly fitted or top-dose-only effect; inactive means flat fitted curve, though single readings scatter.
Possible outcomes: active, inactive

# compound, group
measured = [
    ("N#Cc1cc2nc(O)c(O)nc2cc1[N+](=O)[O-]", "inactive"),
    ("NC1CCN(O)C1=O (stereo not given)", "inactive"),
    ("COc1ccc(NC(=O)c2ccc(-c3ccc(-c4noc(C)n4)cc3C)cc2)cc1N1CCN(C)CC1", "active"),
    ("CCCCC[C@H](CC(=O)NO)C(=O)N[C@H](C(=O)N1CCC[C@H]1CO)C(C)C", "inactive"),
    ("Cc1cc2c(cc1Cl)N(C(=O)Nc1ccnc3ccccc13)CC2", "inactive"),
    ("COCc1nc2c([nH]1)c(=O)n(C)c(=O)n2CC(C)C", "inactive"),
    ("Oc1ccc(Cn2cc[nH]c2=S)cc1", "inactive"),
    ("N[C@H](C(=O)O)[C@H]1C[C@@H]1C(=O)O", "inactive"),
    ("O[Si](CCCN1CCCCC1)(c1ccc(F)cc1)C1CCCCC1 (stereo not given)", "inactive"),
    ("C#CCn1c(=O)c2c(ncn2C)n(C)c1=O", "inactive"),
    ("O=C(O)[C@H]1NCCC[C@H]1C(=O)O", "inactive"),
    ("COc1cc(N)c(Cl)cc1C(=O)OCCN1CCCCC1", "inactive"),
    ("NC(=Nc1ccccc1)NC(=O)c1nc(Cl)c(N)nc1N", "active"),
    ("O=C(O)C1=CCNCC1", "inactive"),
    ("CCCCS(=N)(=O)CC[C@H](N)C(=O)O (stereo not given in full)", "inactive"),
    ("NC(N)=[N+]1CCc2ccccc2C1", "inactive"),
    ("NC(C(=O)N[C@@H]1C(=O)N2C(C(=O)O)=C(Cl)CS[C@H]12)c1ccccc1 (stereo not given in full)", "inactive"),
    ("CCN(CC)CCOC(=O)c1cc(Cl)c(N)cc1OC", "inactive"),
    ("CN1CCC2(CCN3CCc4c(oc5ccccc45)C3C2)N(C)C1=O (stereo not given)", "inactive"),
    ("C=CCn1c(=O)c2c(nc(-c3ccc(S(=O)(=O)O)cc3)n2C)n(C)c1=O", "inactive"),
    ("O=c1ccn([C@@H]2O[C@H](COP(=O)(O)OP(=O)(O)O)[C@@H](O)[C@H]2O)c(=O)[nH]1", "inactive"),
    ("Oc1cc(O)c2c(c1)O[C@H](c1ccc(O)c(O)c1)[C@@H](O)C2", "inactive"),
    ("CC(N)(Cc1ccc(O)c(O)c1)C(=O)O (stereo not given)", "inactive"),
    ("CC(N)=NCCCC[C@@H](N)C(=O)O", "inactive"),
    ("CC(N)(Cc1ccc(O)cc1)C(=O)O (stereo not given)", "inactive"),
]
